Some compounds, each annotated with its measured viability, T/C.
- System: NCI-H1876 complex spheroid viability
- assayDetails: Anticancer human tumor NCI-H1876 cell line growth inhibition [LSD1];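 note: spheroids exposed to compounds for one week before readout; 100% = DMSO vehicle-treated spheroids so lower means fewer viable cells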
- statedConditions: second compound 10 µM; first compound 3 µM; active compounds read low

Worked cases, viability, T/C given:
{"compound": "Nc1ccccc1NC(=O)c1ccc(CNC(=O)OCc2cccnc2)cc1 + NC1CCC(NC2CC2c2ccccc2)CC1", "testSystem": "NCI-H1876 complex spheroid viability", "viability, T/C": "1.74%"}
{"compound": "O=C(C=Cc1cccc(S(=O)(=O)Nc2ccccc2)c1)NO + NC1CCC(NC2CC2c2ccccc2)CC1", "testSystem": "NCI-H1876 complex spheroid viability", "viability, T/C": "19.4%"}
{"compound": "NS(=O)(=O)OCC1CC(n2ccc3c(NC4CCc5ccccc54)ncnc32)CC1O (stereo not given) + NC1CC1c1ccc(-c2cccc(O)c2)cc1", "testSystem": "NCI-H1876 complex spheroid viability", "viability, T/C": "30.9%"}
{"compound": "CCN(c1cc(-c2ccc(CN3CCOCC3)cc2)cc(C(=O)NCc2c(C)cc(C)[nH]c2=O)c1C)C1CCOCC1 + NC1CC1c1ccc(-c2cccc(O)c2)cc1", "testSystem": "NCI-H1876 complex spheroid viability", "viability, T/C": "55.3%"}
{"compound": "COc1cc(C2c3cc4c(cc3C(OC3OC5COC(C)OC5C(O)C3O)C3COC(=O)C23)OCO4)cc(OC)c1O (stereo not given) + NC1CC1c1ccc(-c2cccc(O)c2)cc1", "testSystem": "NCI-H1876 complex spheroid viability", "viability, T/C": "9.82%"}
{"compound": "COc1cc(C2c3cc4c(cc3C(OC3OC5COC(C)OC5C(O)C3O)C3COC(=O)C23)OCO4)cc(OC)c1O (stereo not given) + NC1CCC(NC2CC2c2ccccc2)CC1", "testSystem": "NCI-H1876 complex spheroid viability", "viability, T/C": "14.2%"}
{"compound": "NS(=O)(=O)OCC1CC(n2ccc3c(NC4CCc5ccccc54)ncnc32)CC1O (stereo not given) + NC1CCC(NC2CC2c2ccccc2)CC1", "testSystem": "NCI-H1876 complex spheroid viability", "viability, T/C": "24.4%"}
{"compound": "Nc1ccccc1NC(=O)c1ccc(CNC(=O)OCc2cccnc2)cc1 + NC1CC1c1ccc(-c2cccc(O)c2)cc1", "testSystem": "NCI-H1876 complex spheroid viability", "viability, T/C": "0.52%"}

q: Look up and report measured viability, T/C for this entry: O=C(C=Cc1cccc(S(=O)(=O)Nc2ccccc2)c1)NO + NC1CC1c1ccc(-c2cccc(O)c2)cc1
a: 0.42%

q: Look up and report measured viability, T/C for this entry: CCN(c1cc(-c2ccc(CN3CCOCC3)cc2)cc(C(=O)NCc2c(C)cc(C)[nH]c2=O)c1C)C1CCOCC1 + NC1CCC(NC2CC2c2ccccc2)CC1
a: 56.8%
